Assay: NOVARTIS: Cytotoxicity against human hepatocellular carcinoma cell line (Huh7)
Type: toxicity, cell-based, Huh-7
Conditions: Huh7 cells (hepatocellular carcinoma cell line)
# key: entry, value: CC50

Known results for compounds:
COc1ccccc1C(=O)ON=C(N)Cc1cccc2ccccc12 ... 49.6 µM
COc1ccc(C(Cc2ccccc2)NC2CN3CCC2CC3)cc1 (stereo unspecified) ... > 65 µM
COc1ccc(-n2nc(C(C)(C)C)cc2NC(=O)CN(C(=O)c2ccc(C)c([N+](=O)[O-])c2)C(C)C)cc1 ... 31.1 µM
COc1ccccc1CN1CCc2nc(N3CCCCC3)sc2C1 ... > 10 µM

input: Reported CC50, compound CC1CCCC(NC(=O)C2N(CCN3CCCCC3C)C(=O)C3C(C(=O)Nc4cccc(Cl)c4)C4C=CC32O4)C1C (stereo unspecified) : ____
output: 47.7 µM

input: Given the compound "CN(C)c1cc[n+](CC(=O)Nc2ccc(Cl)cc2)cc1" , what is its reported CC50?
output: > 100 µM

input: Requested read-out: CC50. Entry: O=C(Nc1ccc(OC(F)(F)F)cc1)c1cnn2c1NC(c1cccs1)CC2C(F)(F)F (stereo unspecified)
output: > 50 µM
